test system: CAKI-1 renal; experiment: NCI-60 one-dose screen, 48 h (100 = growth as untreated, 0 = no growth, -100 = all killed); conditions: 10 µM
Compounds without any hit were thinned out: in the full panel of roughly 83,000, 20% have a hit.
// class assignment uses growth with these ranges: interval 1 (below 30%), interval 2 (30% to below 60%), interval 3 (60% or more)

molecule | answerLabel
COc1cccc(-c2ccc(/C=N/NC(=O)c3[nH]c4ccc(Br)cc4c3-c3ccccc3)o2)c1 | interval 1
c1ccc(C(=C(c2ccc(OCCN3CCCCC3)cc2)c2ccc(OCCN3CCCCC3)cc2)C2CCCC2)cc1 | interval 3
O=C(Nc1ccc(Cl)c(C(F)(F)F)c1)c1cncc(C#Cc2cnc3ccc(N4CCOCC4)nn23)c1 | interval 1
Cc1ccc(-c2nc3ccc(C(=O)N=Nc4c(O)[nH]c5ccc(Cl)cc45)cc3[nH]2)cc1 | interval 2
CCCCOc1ccc(Nc2nc3ccccc3nc2Nc2ccc(OCCCC)cc2)cc1 | interval 3
Cc1cc(C)nc(NS(=O)(=O)c2ccc(N/C(N)=N/c3nccc(-c4cccs4)n3)cc2)n1 | interval 3
N[C@@H](CSSC[C@H](N)C(=O)Nc1ccc(OCC2CCCC2)cc1)C(=O)Nc1ccc(OCC2CCCC2)cc1 | interval 1
COc1ccc(-c2cc(C(=O)N=Nc3c(O)[nH]c4ccccc34)c3ccccc3n2)cc1 | interval 1
Cc1cc(C)nc(NS(=O)(=O)c2ccc(N/C(N)=N/c3nccc(-c4ccccc4)n3)cc2)n1 | interval 2
CN1CCN(c2ccc(Nc3nc(NCCCNC(=O)c4ccc(F)cc4)c4sccc4n3)cc2)CC1 | interval 3
COc1ccc(CCN2C(=O)/C(=C/c3csc(C#N)n3)SC2=S)cc1OC | interval 1
CCOC(=O)C1=C(N)N(c2ccccc2)C2=C(C(=O)CC(C)(C)C2)C1c1ccccc1OC (stereo not given) | interval 3
CC(=O)Nc1ccc(-n2cnc3cc(-c4ccc(O)cc4)ccc32)cc1C | interval 2
CC(=C(c1ccc(OCCCN(C)C)cc1)c1ccc(OCCCN(C)C)cc1)c1ccccc1 | interval 1
Cc1noc2c(Cc3ccccc3)nn(CC(=O)N/N=C/c3ccc(F)cc3)c(=O)c12 | interval 2
O=C(c1ccc(Cl)cc1)C1[C@H](c2ccccc2Br)[C@@H](c2ccccc2)NC12C(=O)Nc1ccccc12 (stereo not given in full) | interval 1
C/C(=N\NC(N)=S)c1ccc(Nc2nc(SC(C)C)nc(-c3ccccc3)c2C#N)cc1 | interval 3

* * *

system: HCT-116 colon; assay: NCI-60 one-dose screen, 48 h (100 = growth as untreated, 0 = no growth, -100 = all killed); settings: 10 µM
This is part of a sample that, as a whole, favours compounds with a hit. Of some 83,000 tested, about 20% had one in any assay. Active and inactive are the calls of the source. How the source made its calls: active means growth percent below 10; inactive means the rest.
quantity: growth

compound | observedMeasurement
O=C(CS(=O)(=O)c1oc(-c2ccc(Cl)cc2)nc1S(=O)(=O)c1ccccc1)N1CCCC1 | 0.106% (active)
CC1CC(c2ccc(N(C)C)cc2)=NN1c1nc(O)c(C2=c3cc(Br)ccc3=NC2=O)s1 (centres undefined) | 66.8% (inactive)
CC(=O)Nc1ccc(-c2cn(-c3cccc(C(=O)Nc4cc(C(F)(F)F)cc(C(F)(F)F)c4)c3)nn2)cn1 | 10.6% (inactive)
Cc1cc(=O)oc2cc(OCCCCOc3ccc(/C=C/C(=O)Nc4cccc(Cl)c4)cc3)ccc12 | 79.7% (inactive)

Data credit: PubChem BioAssay (NCI)
